B1: library; a variant is named by its letters at N, in order (parent)
chain: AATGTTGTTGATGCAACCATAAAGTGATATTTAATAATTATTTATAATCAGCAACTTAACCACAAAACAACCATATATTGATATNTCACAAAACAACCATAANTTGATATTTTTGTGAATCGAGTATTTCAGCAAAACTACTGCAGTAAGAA

# Variants of: B1
# TEST DETAILS: relative integration efficiency (T-LR orientation) vs wild-type transposon end (log2 (normalized fold change)); transposon end mutated: left end; higher = more efficient transposition
# TEST CONTEXT: with VchCAST RNA-guided transposition machinery (E. coli BL21(DE3) host, lacZ target)
Would you mind telling me the reported relative integration efficiency (log2) of each entry?
// print number alone

Q: Using known records, supply relative integration efficiency (log2) for CG T38G T39G
Ans: 0.139

Q: Read off the recorded relative integration efficiency (log2) for CA A22T G24T T31C A33C A96C T112G T113C
Ans: -0.822

Q: Answer with reported relative integration efficiency (log2) of CG A93T C94G A95T A96T
Ans: -2.14

Q: Read off the recorded relative integration efficiency (log2) for CG C14A
Ans: -0.739

Q: Supply reported relative integration efficiency (log2) belonging to this variant: CG A29T T30A
Ans: 0.489

Q: Give me measured relative integration efficiency (log2), please, for this variant: CG T30G T84G T110G
Ans: -2.2

Q: Provide relative integration efficiency (log2) value for the following variant: CG T45G A46C A47C T48G
Ans: -0.0893

Q: For CG G106C A107T , write its relative integration efficiency (log2).
Ans: -1.92

Q: Supply recorded relative integration efficiency (log2) for CG T41A A44G A46T A50C A53T A54C C55A T56C T57A A59T C60T A62C here.
Ans: -2.59

Q: Return reported relative integration efficiency (log2). Input variant: CG T113C
Ans: 0.405

Q: Let me know recorded relative integration efficiency (log2) for CG A67C , thanks.
Ans: -0.106

Q: For the variant CG A73G , give its measured relative integration efficiency (log2) value.
Ans: 0.14

Q: Kindly indicate its recorded relative integration efficiency (log2). Item: TA T76A A77G C87T A96C T112G T113C
Ans: -0.4

Q: Answer with the recorded relative integration efficiency (log2) of TA A22T G24T T31C A33C T76A A77G C87T A102T T111C T113C only.
Ans: -0.361

Q: Give the value of relative integration efficiency (log2) reported for the following: CC A23T A77T
Ans: 0.131

Q: Provide relative integration efficiency (log2) value for the following variant: CG G106T A107C
Ans: -1.19

Q: Give the value of relative integration efficiency (log2) reported for the following: CG T32G
Ans: -0.347

Q: Using known records, supply relative integration efficiency (log2) for CG A119T
Ans: 0.893

Q: State its relative integration efficiency (log2) for this variant: CG C17A C71A C97A
Ans: -0.871

Q: Given the variant CG A65T A66T A67T C68G , write its reported relative integration efficiency (log2).
Ans: -0.641

Q: // fetch relative integration efficiency (log2) given entry CG G7T
Ans: -4.09

Q: Please look at this variant and report its relative integration efficiency (log2): TA A16C G24T T32G A33C T76A A77G C87T T104A T110A T113A
Ans: -0.782

Q: Fill in reported relative integration efficiency (log2) for this entry: CG A33T
Ans: 0.232

Q: Report relative integration efficiency (log2), nothing else, for this variant: CG A67T C68G A69T A70T
Ans: -1.78

Q: Report relative integration efficiency (log2), nothing else, for this variant: TA G24A T30A A70C T76A T84A C87A T104A T110A T113A
Ans: -0.0484

Q: # return recorded relative integration efficiency (log2) for entry CG A99T T100A
Ans: -1.17

Q: Look up and report measured relative integration efficiency (log2) for this entry: CG A1C A2G T3C G4C T5G
Ans: -0.385

Q: Using known records, supply relative integration efficiency (log2) for CG A29C A83C A109C
Ans: -1.94

Q: Query relative integration efficiency (log2) for CG A88C
Ans: -0.0509

Q: Provide relative integration efficiency (log2) value for the following variant: CG T116G G117T
Ans: -0.146

Q: Give a short answer stating reported relative integration efficiency (log2) for CG C60A .
Ans: 0.503
